ASSAY SYSTEM: T1, human MT1-MMP hemopexin domain (human, UniProt P50281 319-511)
T1 construct: range 319-511; Secreted from HEK293 cells as soluble N-terminally His6-tagged protein; also called MT1-MMP hemopexin-like repeats; MMP14
TEST NAME: FP competition, human MT1-MMP hemopexin domain; tracer not given
pKd: −log10 of the molar value. Numbered stars: 1 amine (or outer) side, 2 acyl side, 3 side chain; on linkers, the order of the positions; unused ones are H or OH. Bridge positions count the residues as written; N and C are the ends. Ends that are not written are not given here. TBMB = c1c(C[*:1])cc(C[*:3])cc1C[*:2]
PROPERTY NAME: pKd

A = Ac-CYNEYGCEDFYDIC (linker 1-7-14 via TBMB; not fully specified (C-terminus), also called Ac-(17-69-07) Tyr4) [17-69-07-N057]
B = Ac-CYNEWGCEDFYDIC (linker 1-7-14 via TBMB; not fully specified (C-terminus), also called Ac-(17-69-07) Trp4) [17-69-44-N002]
*Q* Please state the entry with greater pKd among A and B . Use the label to indicate which entry you chose.
*A* B
(B: 9.12, A: 8.75)
